From: the supplement of paper PMC10307832

Test system: NCI-H1944
Experiment: relative viability (nuclei count vs DMSO), 5 days (fraction); higher = more cells survive
Details: first compound 0.001 µM

molecule: Cc1cn(-c2cc(NC(=O)c3ccc(C)c(Nc4nccc(-c5cccnc5)n4)c3)cc(C(F)(F)F)c2)cn1 [Nilotinib] + Cc1cc(Nc2cc(N3CCN(C)CC3)nc(Sc3ccc(NC(=O)C4CC4)cc3)n2)n[nH]1 [Tozasertib] (partner 0.1 µM)
testedSystem: NCI-H1944
relative viability: 0.248

molecule: Cc1cn(-c2cc(NC(=O)c3ccc(C)c(Nc4nccc(-c5cccnc5)n4)c3)cc(C(F)(F)F)c2)cn1 [Nilotinib] + NC(=O)Nc1cc(-c2cccc(F)c2)sc1C(=O)N[C@H]1CCCNC1 [AZD7762] (partner 0.2 µM)
testedSystem: NCI-H1944
relative viability: 0.436

molecule: Cc1cn(-c2cc(NC(=O)c3ccc(C)c(Nc4nccc(-c5cccnc5)n4)c3)cc(C(F)(F)F)c2)cn1 [Nilotinib] + COc1cccc2cc(-c3nc([C@H]4CC[C@H](C(=O)O)CC4)n4ncnc(N)c34)[nH]c12 [OSI-027] (partner 0.5 µM)
testedSystem: NCI-H1944
relative viability: 0.418
